Reference source for all entries: ChEMBL document CHEMBL1147662

- Assay Text: Renal clearance in Beagle dog
- Assay type: ADME, organism-based, Canis lupus familiaris, Kidney
- Conditions: in vivo, read-out: CL_renal
Metric Name: CL renal (mL/day/kg)

Input Smiles | Unit Name | Endpoint Value
O=C(O)c1cccc(-c2cccc(NCCNC[C@H](O)c3cccc(Cl)c3)c2)c1 | mL/day/kg | 20.2

----------
- Measurement Target: Beta-1 adrenergic receptor (Homo sapiens, UniProt P08588)
- Sequence (P08588 whole entry): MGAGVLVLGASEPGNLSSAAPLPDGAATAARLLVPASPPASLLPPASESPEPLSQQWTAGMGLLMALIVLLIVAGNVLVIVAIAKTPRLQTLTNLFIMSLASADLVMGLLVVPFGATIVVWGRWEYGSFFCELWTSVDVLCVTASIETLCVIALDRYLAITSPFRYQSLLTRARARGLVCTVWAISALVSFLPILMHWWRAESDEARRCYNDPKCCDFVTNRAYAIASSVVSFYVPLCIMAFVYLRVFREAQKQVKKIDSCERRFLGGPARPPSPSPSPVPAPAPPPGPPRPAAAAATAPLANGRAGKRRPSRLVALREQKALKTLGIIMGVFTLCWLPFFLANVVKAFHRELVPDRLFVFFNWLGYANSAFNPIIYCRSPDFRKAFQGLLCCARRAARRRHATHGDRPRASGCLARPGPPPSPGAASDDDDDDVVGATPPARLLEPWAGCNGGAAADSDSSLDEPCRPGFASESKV
pKi: −log10 of the molar value.
Metric Name: pKi

Input Smiles | Endpoint Value
O=C(O)c1cccc(-c2cccc(NCCNC[C@H](O)c3cccc(Cl)c3)c2)c1 | 6.40

----------
- Assay Text: Half life in Beagle dog at 0.2 mg/kg, iv
- Assay type: ADME, organism-based, Canis lupus familiaris
- Set-up: dose 0.2 mg/kg, route intravenous
- Conditions: in vivo

Compound | half-life [h]
O=C(O)c1cccc(-c2cccc(NCCNC[C@H](O)c3cccc(Cl)c3)c2)c1 [SOLABEGRON] | 3.3

----------
- Assay Text: Half life in iv dosed cynomolgus monkey
- Assay type: ADME, organism-based, Macaca fascicularis
- Conditions: in vivo

Input Smiles | half-life (h)
O=C(O)c1cccc(-c2cccc(NCCNC[C@H](O)c3cccc(Cl)c3)c2)c1 | 4.5

----------
- Assay Text: Half life in Wistar Han rat at 1 mg/kg, iv
- Assay type: ADME, organism-based
- Parameters: dose 1 mg/kg, route intravenous
- Conditions: in vivo
Metric Name: half-life (h)

Input Smiles | Unit Name | Endpoint Value
O=C(O)c1cccc(-c2cccc(NCCNC[C@H](O)c3cccc(Cl)c3)c2)c1 | h | 2.1

----------
- Assay Text: Volume of distribution in Beagle dog
- Type: ADME, organism-based, Canis lupus familiaris
- Conditions: in vivo, read-out: Vss

Input Smiles | Vd [L/kg]
Cc1ccc(C(=O)O)cc1-c1cccc(NCCNC[C@H](O)c2cccc(Cl)c2)c1 | 1.37
C[C@H](CNc1cccc(-c2cccc(C(=O)O)c2)c1)NC[C@H](O)c1cccc(Cl)c1 | 0.45
C[C@H](CNc1cccc(-c2ccc(C(=O)O)cc2C(=O)O)c1)NC[C@H](O)c1cccc(Cl)c1 | 0.99
O=C(O)c1ccncc1-c1cccc(NCCNC[C@H](O)c2cccc(Cl)c2)c1 | 0.33
O=C(O)c1cccc(-c2cccc(NCCNC[C@H](O)c3cccc(Cl)c3)c2)c1 | 0.34
C[C@H](CNc1cccc(-c2ccccc2C(=O)O)c1)NC[C@H](O)c1cccc(Cl)c1 | 0.37

----------
- Assay Text: Renal clearance in Wistar Han rat at 1 mg/kg, iv or 1 mg/kg, po
- Assay type: ADME, organism-based, Kidney
- Conditions: in vivo, read-out: CL_renal

Molecule | Unit Name | CL renal
O=C(O)c1cccc(-c2cccc(NCCNC[C@H](O)c3cccc(Cl)c3)c2)c1 [SOLABEGRON] | mL/min/kg | 0.16

----------
Recorded half-life, one value per entry.
- Assay Text: Half life in po dosed Beagle dog
- Type: ADME, organism-based, Canis lupus familiaris
- Conditions: in vivo

Input Smiles | half-life, h
Cc1ccc(C(=O)O)cc1-c1cccc(NCCNC[C@H](O)c2cccc(Cl)c2)c1 | 2.4
O=C(O)c1ccncc1-c1cccc(NCCNC[C@H](O)c2cccc(Cl)c2)c1 | 1.7
O=C(O)c1cccc(-c2cccc(NCCNC[C@H](O)c3cccc(Cl)c3)c2)c1 | 5
C[C@H](CNc1cccc(-c2cccc(C(=O)O)c2)c1)NC[C@H](O)c1cccc(Cl)c1 | 2.5
C[C@H](CNc1cccc(-c2ccccc2C(=O)O)c1)NC[C@H](O)c1cccc(Cl)c1 | 2.4
